Biological target: T1, extracellular domain (ECD) of recombinant human Sortilin with a C-terminal HIS tag (ECD-huSortilin-HIS) (human, UniProt Q99523 78-755)
T1 construct: Bought (R&D Systems); also called human sortilin-ECD; not shown: C-terminal HIS tag
T1 sequence: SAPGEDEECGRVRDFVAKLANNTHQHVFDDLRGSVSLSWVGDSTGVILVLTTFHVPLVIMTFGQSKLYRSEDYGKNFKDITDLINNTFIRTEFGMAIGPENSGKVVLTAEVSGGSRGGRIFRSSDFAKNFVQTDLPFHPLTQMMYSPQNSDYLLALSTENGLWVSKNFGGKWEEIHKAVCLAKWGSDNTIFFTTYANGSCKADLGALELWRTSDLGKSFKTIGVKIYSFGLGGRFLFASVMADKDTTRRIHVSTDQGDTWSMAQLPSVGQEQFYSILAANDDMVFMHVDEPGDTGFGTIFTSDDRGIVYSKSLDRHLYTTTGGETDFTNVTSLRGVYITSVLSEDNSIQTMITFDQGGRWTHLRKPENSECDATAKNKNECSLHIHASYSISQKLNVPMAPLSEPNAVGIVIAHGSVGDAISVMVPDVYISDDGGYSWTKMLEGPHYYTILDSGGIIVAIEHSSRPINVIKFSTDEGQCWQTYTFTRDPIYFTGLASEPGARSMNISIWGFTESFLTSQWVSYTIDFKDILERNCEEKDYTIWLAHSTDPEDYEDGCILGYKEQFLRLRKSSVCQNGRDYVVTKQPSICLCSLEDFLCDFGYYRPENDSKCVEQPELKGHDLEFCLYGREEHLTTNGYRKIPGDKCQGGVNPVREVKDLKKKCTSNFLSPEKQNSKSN
Assay: SPR (Biacore T200), mAb captured by anti-mouse antibody on CM5, Sortilin 0.1-300 nM as analyte, global 1:1 fit
ASSAY READOUT: pKd
Note on units: pKd is unitless, being -log10 of a concentration expressed in mol/L.

Solved entries (count: 4):
[
  {
    "BINDER": "mouse monoclonal antibody 5E20 (antibody, mouse IgG1, V domains shown, mouse IgG1, kappa; also called ms5E20; ms5E20new) VH: EVQLVESGGDLVKPGGSLKLSCAAPGFTFSTYGMSWVRQTPDKRLEWVAIISSGGSYTYYSDTVKGRFTISRDNAKNTLYLQMSSLKSEDTAMYYCSRSSSHWYFDVWGTGTTVTVSS VL: DILMTQSPSSMSVSLGDTVSITCHASQGISSNIGWLQQKPGKSFKGLIYHGTNLKDGVPSRFSGSGSGADFSLTISSLESEDFADYFCVQYAQFPYTFGGGTKLEKR",
    "pKd": 8.80
  },
  {
    "BINDER": "mouse monoclonal antibody 2C14 (antibody, mouse IgG1, V domains shown, mouse IgG1, kappa) VH: EVQLVESGGDLVKPGGSLKLSCAASGFTFNTHGMSWVRQTPDKSLEWVATISTGGFYTSYPDSVKGRFTISRDNAKNTLFLQMSSLKSEDTAMYYCAKSSSHWYFDVWGTGTTVTVSS VL: DILMTQSPSSMSVSLGDTVSITCHASQGISSNIGWLQQKPGKSFKGLIYHGTNLEDGVPSRFSGSGSGADYSLTISSLEYEDFADYYCVQYAHFPYTFGGGTKLEIK",
    "pKd": 7.93
  },
  {
    "BINDER": "mouse monoclonal antibody 5M13 (antibody, mouse IgG1, V domains shown, mouse IgG1, kappa) VH: DVQLQESGPGLVKPSQSLSLTCTVTGYSITSDYAWNWIRQFPGNKLEWMGYISSSGSTSYNPSLKSRISVTRDTSKNQFFLQLNFVTAEDTATYYCAFVTTTMDYWGQGTSVTVSS VL: DVVMTQTPLSLPVSLGDQASISCRSSQSLVHSNGNTYLHWYLQKPGQSPKLLIYTVSNRFSGVPDRFSGSGSGTDFTLKISRVEAEDLGVYFCSQSTHVPFTFGSGTKLEIK",
    "pKd": 8.64
  },
  {
    "BINDER": "mouse monoclonal antibody 2F18 (antibody, mouse IgG1, V domains shown, mouse IgG1, kappa) VH: EVQLVESGGDLVKPGGSLKLSCAASGFTFNIYGMSWVRQTPDKRLEWVATISTGGIYTYYPDSVKGRFTISRDNAKNTLYLQMSSLKSEDTAMYYCARHPVGALDYWGQGTSVTVSS VL: DIQVTQSPASLSVSVGETVTITCRASENIYSNLAWYQQKQGKSPHLLVYTATTLADGVPSRFSGSGSGTQYSLKINSLQSEDFGSYYCQHFWGTPPWTFGGGTKLEIK",
    "pKd": 8.55
  }
]

Now for a further binder.
In: What does the record list as pKd for mouse monoclonal antibody 8H24 (antibody, mouse IgG2c, V domains shown, mouse IgG2c, kappa; also called mu8H24; m8H24) VH: QAYLQQSGTELVRPGASVKMSCKASGYTFTSYSMHWVKQTPRQGLEWIGAIYPGNDATSYNQKFKGKATLTVDKSSSTAYMQLSSLTSEDSAVYFCAREGYYGSSFEAWFASWGQGTLVTVSA VL: DVLMTQTPLSLPVSLGDQASISCRSSQSIVHSNGNTYLEWYLQKPGQSPKLLIYKVSNRFSGVPDRFSGSGSGTDFTLKISRVEAEDLGVYYCFQGSHVLPTFGGGTKLEIK ?
Out: 8.34
